Data origin, for the record: patent US20230225991A1

# TEST SYSTEM: HMBS (Homo sapiens, UniProt P08397)
# EXPERIMENT SUMMARY: Octet RED KD determination (Example 21)
# Format: binding
# Set-up: Full-length HMBS was cloned into pET-28a(+)-TEV vector and transformed into BL21 (DE3) cells for expression; 6xHis (N, cleaved yes); TEV protease cleavage site (N, cleaved yes); made in house; host or cells: E. coli BL21 (DE3)
# APPLIED CONDITIONS: steady state analysis, 6.25 to 500 μM, PBS-P+ 5% DMSO
READOUT LABEL: Kd (µM)

# count of solved cases: 2
O=C(c1ccc(Cl)c(Cl)c1)c1ccc(Cl)c([N+](=O)[O-])c1 : 140
O=Cc1cc(Cc2ccccc2Cl)cc([N+](=O)[O-])c1O [drawing 43] : 90

A: O=C(c1ccc(Cl)cc1)c1cc([N+](=O)[O-])ccc1Cl
B: O=Cc1cc(Cc2ccccc2Cl)ccc1O
C: COc1ccc(C(=O)c2ccc(Cl)c([N+](=O)[O-])c2)cc1
D: Cc1ccc(C(=O)c2ccc(Cl)cc2)cc1[N+](=O)[O-]
Please rank these compounds by Kd in descending order. Put the labels in the requested order and list them out. C, B, A, D
(C: 300 µM, B: 190 µM, A: 110 µM, D: 7 µM)

###

# TEST SYSTEM: WT-HMBS (Homo sapiens, UniProt P08397)
# Construct: Full-length HMBS was cloned into pET-28a(+)-TEV vector and transformed into BL21 (DE3) cells for expression; 6xHis (N, cleaved yes); TEV protease cleavage site (N, cleaved yes); made in house; host or cells: E. coli BL21 (DE3)
# EXPERIMENT SUMMARY: Surface plasmon resonance (SPR), HMBS immobilized to sensor chip
# APPLIED CONDITIONS: sigmoidal fitting of binding isotherm, 25° C., 0-200 μM compound; read-out: S0.5 (concentration for half-maximal binding), SPR
READOUT LABEL: pKd
In plain terms, pKd is the concentration in mol/L turned into minus its base-10 logarithm.

State its pKd for this compound: O=C(c1ccccc1)c1ccc(Cl)c([N+](=O)[O-])c1 4.20

###

# TEST SYSTEM: HMBS (Homo sapiens, UniProt P08397)
# Sequence (P08397 1-361): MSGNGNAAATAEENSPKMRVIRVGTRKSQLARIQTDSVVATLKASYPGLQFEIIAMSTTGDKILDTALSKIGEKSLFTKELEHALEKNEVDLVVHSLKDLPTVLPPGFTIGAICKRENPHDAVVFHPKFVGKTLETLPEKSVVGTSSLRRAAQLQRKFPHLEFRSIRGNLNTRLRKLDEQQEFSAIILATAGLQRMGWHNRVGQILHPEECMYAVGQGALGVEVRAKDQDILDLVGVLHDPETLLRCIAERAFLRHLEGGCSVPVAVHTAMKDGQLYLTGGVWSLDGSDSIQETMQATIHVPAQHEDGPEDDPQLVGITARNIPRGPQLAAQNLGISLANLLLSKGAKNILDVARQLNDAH
# EXPERIMENT SUMMARY: Octet RED96 binding (S0.5)
# Set-up: Full-length HMBS was cloned into pET-28a(+)-TEV vector and transformed into BL21 (DE3) cells for expression; 6xHis (N, cleaved yes); TEV protease cleavage site (N, cleaved yes); made in house; host or cells: E. coli BL21 (DE3)
# APPLIED CONDITIONS: sigmoidal binding isotherm, SSA biosensors, biotinylated HMBS; read-out: S0.5 (concentration for half-maximal binding), Octet
READOUT LABEL: Kd (µM)
Expressed in µM, but write only the number.

State its Kd for this compound: O=Cc1cc(Cc2ccccc2Cl)cc([N+](=O)[O-])c1O 83
